experimental system: T1, recombinant biotinylated CD71 extracellular domain (Sino Biologics) with an N-terminal 6His tag (human, UniProt P02786 89-760, biotinylated (sites not given))
T1 construct: extracellular domain; also called hCD71; huCD71
T1 sequence (P02786 other isoform, or with tags, fused parts or gaps): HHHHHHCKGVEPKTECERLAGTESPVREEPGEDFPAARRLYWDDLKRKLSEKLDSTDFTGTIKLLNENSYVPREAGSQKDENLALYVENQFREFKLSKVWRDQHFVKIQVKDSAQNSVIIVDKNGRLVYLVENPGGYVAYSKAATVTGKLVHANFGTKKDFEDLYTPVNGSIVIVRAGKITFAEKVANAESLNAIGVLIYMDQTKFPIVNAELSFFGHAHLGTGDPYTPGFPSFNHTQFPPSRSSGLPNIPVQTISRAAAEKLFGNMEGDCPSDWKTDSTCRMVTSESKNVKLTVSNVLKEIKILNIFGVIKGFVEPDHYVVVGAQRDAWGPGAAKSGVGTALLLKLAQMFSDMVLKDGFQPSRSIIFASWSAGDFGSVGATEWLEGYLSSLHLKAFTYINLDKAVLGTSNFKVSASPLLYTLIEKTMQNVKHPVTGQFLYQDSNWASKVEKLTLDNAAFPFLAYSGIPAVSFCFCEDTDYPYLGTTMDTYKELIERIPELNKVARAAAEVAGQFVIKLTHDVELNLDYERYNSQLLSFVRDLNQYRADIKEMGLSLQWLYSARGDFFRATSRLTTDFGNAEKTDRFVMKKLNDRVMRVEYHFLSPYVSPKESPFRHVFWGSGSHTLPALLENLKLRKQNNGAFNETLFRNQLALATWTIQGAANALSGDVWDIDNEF
method notes: screening ELISA
experimental readout: hCD71

Some solved entries appear below for comparison.
binder | hCD71
SEQ ID NO 116 (designed binder, FN3 domain) MLPAPKNLVVSRVTEDSARLSWTAPDAAFDSFSIAYSEVRYDGEAIVLTVPGSERSYDLTGLKPGTEYVVPIGGVKGGGSSSPLSAIFTT | 536000
SEQ ID NO 86 (designed binder, FN3 domain) MLPAPKNLVVSRVTEDSARLSWTAPDAAFDSFIIWYAEWVNDGEAIVLTVPGSERSYDLTGLKPGTEYRVEITGVKGGTWSRPLSAIFTT | 3.39e+06

1. SEQ ID NO 225 (designed binder, FN3 domain) MLPAPKNLVVSRVTEDSARLSWTAPDAAFDSFKIEYFEYVGYGEAIVLTVPGSERSYDLTGLKPGTEYYVAIYGVKGGWYSRPLSAIFTT
2. SEQ ID NO 106 (designed binder, FN3 domain) MLPAPKNLVVSRVTEDSARLSWTAPDAAFDSFTIAYEEHGLVGEAIYLRVPGSERSYDLTGLKPGTEYHVGIMGVKGGVFSSPLSAIFTT
Of 1 and 2 , whose reported hCD71 is numerically smaller? # respond with the chosen item's label 2
(2: 594000, 1: 2.96e+06)
